Data provenance: patent US20230002377A1

# Method description: 14-day once-a-day oral multiple ascending dose PK study, day-14 data
# Assay type: in vivo, human
# Experimental setup: male, human, plasma, oral, 10 mg, 10 mg daily, male, day 14, printed in the 23-24 h draw line
Endpoint name: AUC (ng·h/mL)
Please reply with the bare figure in ng·h/mL and do not write the unit itself.

Query block: Give the measured AUC of Clc1ccc(C2CNCc3cc(-c4ccc5ncnn5c4)ccc32)cc1Cl (stereo not shown) [Formula I] .
Result block: 1260

###

# Method description: 14-day once-a-day oral multiple ascending dose PK study, day-14 data
# Assay type: in vivo, human
# Experimental setup: male, human, plasma, oral, 3 mg, 3 mg daily, male, day 14, printed in the 23-24 h draw line
# Protocol: A LC-MS/MS method was developed and validated for the quantitation of Formula I in 0.250 mL of human EDTA plasma in a total of 7 runs, out of which 1 run was rejected. The method utilized stable labeled Formula I as an internal standard. […] The assay accuracy, expressed as % DEV, was within 6.4% of the nominal concentration values for the analyte. […]
Endpoint name: AUC (ng·h/mL)
Express the result in ng·h/mL but write the number alone.

Query block: AUC for Clc1ccc(C2CNCc3cc(-c4ccc5ncnn5c4)ccc32)cc1Cl (stereo not shown) ?
Result block: 439
